- Test system: L1210 leukemia ip in BDF1 mice, survival T/C
- Protocol Notes: NCI In Vivo Anticancer Drug Screen. Data for tumor model L1210 Leukemia (intraperitoneal) in B6D2F1 (BDF1) mice
- Condition Parameters: endpoint: mean survival time; dose: 50.0 mg/kg/injection; schedule: Q01DX009 (ip); vehicle: saline
Toxic doses and inconclusive results are not listed. Cut-off read from the data, not from the text of the source: active = T/C of 150% or more; inactive = T/C below 125%.
Hello, when you answer, please use one of the following outcomes: yes (active), no (inactive)

INSERT INTO assay_data (molecule, category) VALUES
  ('COc1ccc(C(SCC(N)C(=O)O)(c2ccccc2)c2ccccc2)cc1 (stereo not drawn)', 'yes'),
  ('CCCOC(C(=O)OC1CCN(C)CC1)(c1ccccc1)c1ccccc1', 'no'),
  ('Clc1ccc2n[nH]c(Cl)c2c1', 'no');

Fill in: this test's call for CC(C(=O)N1c2ccccc2Sc2ccccc21)[N+]1(C)CCCC1 (stereo not drawn) is ___ no

Look up the recorded call for CC(c1c[nH]c2ccccc12)N1CCCCC1 (stereo not drawn) in this test. no

How was O=C(C[n+]1ccc2ccccc2c1)c1ccccc1 classified in this test? no

src = PubChem BioAssay AID248
